Every entry's value here was drawn from paper PMC8478281.

The following compounds are listed with their measured MIC values.
Tested on: B. subtilis
Assay: Minimal growth inhibitory concentration (broth macrodilution), B. subtilis
Format: cell-based, Bacillus subtilis
Conditions: Bacillus subtilis, read-out: MIC B. subtilis

Worked set:
[[record]]
compound = "NC(=O)c1c(F)ccc(OCc2cccc(Cl)c2)c1F"
assay_result = "25 µM"

[[record]]
compound = "NC(=O)c1c(F)ccc(OCc2ccccc2C(F)(F)F)c1F"
assay_result = "> 100 µM"

[[record]]
compound = "NC(=O)c1c(F)ccc(OCCCc2cccc(C(F)(F)F)c2)c1F"
assay_result = "10 µM"

[[record]]
compound = "CCC[C@H](COc1ccc(F)c(C(N)=O)c1F)Nc1cccc(C(F)(F)F)c1 [(R)-26]"
assay_result = "2.5 µM"

[[record]]
compound = "NC(=O)c1c(F)ccc(OCCNc2cccc(C(F)(F)F)c2)c1F"
assay_result = "10 µM"


Name the recorded MIC of the compound listed here: NC(=O)c1c(F)ccc(OCCc2cccc(C(F)(F)F)c2)c1F
50 µM

Let me know recorded MIC for NC(=O)c1c(F)ccc(OCc2ccc(C(F)(F)F)cc2)c1F , thanks.
50 µM

Report MIC for NC(=O)c1cccc(OCCc2cccc(Cl)c2)c1
100 µM

Annotate the compound NC(=O)c1c(F)ccc(OCc2nc3cc(Cl)cnc3s2)c1F [PC190723, reference compound] with its measured MIC.
5 µM

Tell me MIC reported for CCCC(COc1ccc(F)c(C(N)=O)c1F)Nc1cccc(C(F)(F)F)c1 (racemic)
5 µM

###

Molecular target: FtsZ-GMPCPP polymers (BsFtsZ) (Bacillus subtilis, UniProt P17865)
Construct: made in house
Sequence (P17865 whole entry): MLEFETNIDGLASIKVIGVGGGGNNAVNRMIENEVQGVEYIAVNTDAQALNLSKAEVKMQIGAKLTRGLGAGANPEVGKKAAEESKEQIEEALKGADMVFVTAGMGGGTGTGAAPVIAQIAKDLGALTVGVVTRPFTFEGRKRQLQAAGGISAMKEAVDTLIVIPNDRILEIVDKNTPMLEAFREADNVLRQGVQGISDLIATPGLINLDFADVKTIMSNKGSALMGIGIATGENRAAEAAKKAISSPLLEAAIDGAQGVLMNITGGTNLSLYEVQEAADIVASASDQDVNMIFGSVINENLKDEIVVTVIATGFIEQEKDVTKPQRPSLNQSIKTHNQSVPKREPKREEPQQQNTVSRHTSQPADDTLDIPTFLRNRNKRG
Assay: Binding titration of the fluorescent probes to FtsZ polymers by fluorescence anisotropy
Conditions: KD, FtsZ-GMPCPP polymers; best fit values from binding titrations
ASSAY READOUT: Kd (µM)
Enter your answer as a number in µM; do not include the unit.

Please review the entries below; each comes with its answer.
[[record]]
molecule = "CCC[C@H](COc1ccc(F)c(C(N)=O)c1F)Nc1ccc([N+](=O)[O-])c2nonc12 [(R)-5]"
assay_readout = "Kd"
assay_result = 1.9

[[record]]
molecule = "NC(=O)c1c(F)ccc(OCCNc2ccc([N+](=O)[O-])c3nonc23)c1F [Compound 1, reference compound]"
assay_readout = "Kd"
assay_result = 26

[[record]]
molecule = "CCC[C@@H](COc1ccc(F)c(C(N)=O)c1F)Nc1ccc([N+](=O)[O-])c2nonc12 [(S)-5]"
assay_readout = "Kd"
assay_result = 15


The record that follows has no Kd shown yet.
Return the recorded Kd value; entry: CCC[C@@H](CNc1ccc([N+](=O)[O-])c2nonc12)Oc1ccc(F)c(C(N)=O)c1F [(S)-2]
8

###

Target: FtsZ-GMPCPP polymers (BsFtsZ) (Bacillus subtilis, UniProt P17865)
Construct: made in house
Assay: Binding titration of the fluorescent probes to FtsZ polymers by fluorescence anisotropy
Details: FtsZ-GMPCPP polymers; best fit values from binding titrations
Items are presented alongside their recorded rmin (free probe).
Answer with a number only.

Solved cases below.
[[record]]
molecule = "CCC[C@@H](CNc1ccc([N+](=O)[O-])c2nonc12)Oc1ccc(F)c(C(N)=O)c1F [(S)-2]"
assay_target = "FtsZ-GMPCPP polymers (BsFtsZ) (Bacillus subtilis, UniProt P17865)"
assay_result = 0.028

[[record]]
molecule = "NC(=O)c1c(F)ccc(OCCNc2ccc([N+](=O)[O-])c3nonc23)c1F [Compound 1, reference compound]"
assay_target = "FtsZ-GMPCPP polymers (BsFtsZ) (Bacillus subtilis, UniProt P17865)"
assay_result = 0.024

[[record]]
molecule = "CCC[C@H](COc1ccc(F)c(C(N)=O)c1F)Nc1ccc([N+](=O)[O-])c2nonc12 [(R)-5]"
assay_target = "FtsZ-GMPCPP polymers (BsFtsZ) (Bacillus subtilis, UniProt P17865)"
assay_result = 0.029

[[record]]
molecule = "CCC[C@@H](COc1ccc(F)c(C(N)=O)c1F)Nc1ccc([N+](=O)[O-])c2nonc12 [(S)-5]"
assay_target = "FtsZ-GMPCPP polymers (BsFtsZ) (Bacillus subtilis, UniProt P17865)"
assay_result = 0.025


Okay, next one:
Find the measured rmin (free probe) of CCC[C@H](CNc1ccc([N+](=O)[O-])c2nonc12)Oc1ccc(F)c(C(N)=O)c1F [(R)-2] and report it.
0.038

###

Collected Kd values appear next to each entry.
Biological target: stabilized SaFtsZ polymers (Staphylococcus aureus)
Construct: Full-length S. aureus FtsZ (SaFtsZ); made in house
Sequence (P0A031 whole entry): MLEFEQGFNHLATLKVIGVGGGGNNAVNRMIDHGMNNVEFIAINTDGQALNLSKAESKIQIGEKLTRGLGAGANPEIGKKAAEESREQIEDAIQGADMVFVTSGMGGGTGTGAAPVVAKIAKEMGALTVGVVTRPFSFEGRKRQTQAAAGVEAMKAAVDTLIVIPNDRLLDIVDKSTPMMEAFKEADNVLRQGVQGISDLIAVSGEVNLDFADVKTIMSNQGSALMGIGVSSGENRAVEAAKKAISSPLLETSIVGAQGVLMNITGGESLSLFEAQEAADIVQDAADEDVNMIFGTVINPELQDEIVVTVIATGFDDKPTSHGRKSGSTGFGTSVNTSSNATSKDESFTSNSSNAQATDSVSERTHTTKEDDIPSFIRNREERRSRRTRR
Assay: Competition assay with stabilized SaFtsZ polymers
Type: binding
Details: read-out: KD (in parenthesis) (converted)
Report the figure in nM without appending any unit label.

Guide cases for Kd, answers given:
[[record]]
compound = "NC(=O)c1c(F)ccc(OCCNc2cccc(C(F)(F)F)c2)c1F [Compound 25]"
assay_readout = "Kd"
assay_result = 300

[[record]]
compound = "CCC[C@@H](COc1ccc(F)c(C(N)=O)c1F)Nc1cccc(C(F)(F)F)c1 [(S)-26]"
assay_readout = "Kd"
assay_result = 7000


Here is another compound to look at.
Dear colleague, please send me the reported Kd for NC(=O)c1c(F)ccc(OCc2cccc(C(F)(F)F)c2)c1F [Compound 20] when you can.
700

###

Test: MTT cytotoxicity assay
Format: cell-based
Conditions: human, IMR90 lung fibroblast cells; IMR90, 50 µM, relative to vehicle
ASSAY READOUT: viability at 50 µM (%)
Could you give me the number in %? Just the number is fine.

# return recorded viability at 50 µM for input NC(=O)c1c(F)ccc(OCc2cccc(C(F)(F)F)c2)c1F
84

###

Tested on: S. aureus Mu50
Experiment: Minimal division inhibitory concentration, S. aureus Mu50
Format: cell-based
Conditions: Staphylococcus aureus, MU50, read-out: MDC S. aureus Mu50
ASSAY READOUT: minimal effective concentration (µM)
Report the figure in µM without appending any unit label.

// known answers, use as guide
[[record]]
smiles_input = "NC(=O)c1c(F)ccc(OCc2cccc(Cl)c2)c1F"
assay_readout = "minimal effective concentration"
assay_result = 50

[[record]]
smiles_input = "NC(=O)c1c(F)ccc(OCCNc2cccc(C(F)(F)F)c2)c1F"
assay_readout = "minimal effective concentration"
assay_result = 50


The record that follows has no minimal effective concentration shown yet.
Report measured minimal effective concentration on S. aureus Mu50; entry: NC(=O)c1c(F)ccc(OCc2cccc(C(F)(F)F)c2)c1F
50
